Tested on: MOLT-4
ASSAY METHOD TEXT: Antiproliferative activity against human MOLT-4 cells assessed as inhibition of cell growth with replenishment of medium with compound on day 4 and 7 by ATPlite assay
Type: functional
PROPERTY LABEL: GI50 (nM)

Examples with answers:
{"columns": ["SMILES DATA", "GI50, nM"],
 "data": [
  ["CCc1c(C(=O)N[C@@H](CCC2CC2)C(=O)Nc2ccc(C#N)cc2)[nH]c2c1C(=O)CC(C)(C)C2", 220],
  ["Cc1ccc(NC(=O)[C@@H](CCC2CC2)NC(=O)c2[nH]c3c(c2C)C(=O)CC(C)(C)C3)cn1", 176]
]}

a: COc1cc2c(NC3CCN(C(C)C)CC3)nc(C3CCCCC3)nc2cc1OCCCN1CCCC1
b: CC(C)c1c(C(=O)N[C@@H](CCC2CC2)C(=O)Nc2ccc(C#N)cc2)[nH]c2c1C(=O)CC(C)(C)C2
c: Cc1c(C(=O)N[C@@H](CCC2CC2)C(=O)Nc2ccccc2)[nH]c2c1C(=O)CC(C)(C)C2
d: Cc1c(C(=O)N[C@@H](CCC2CC2)C(=O)Nc2ccc(C#N)cc2)[nH]c2c1C(=O)CC(C)(C)C2
Query: Put the entries in order of GI50, starting with the largest number. Reply format: the labels, ordered as requested.
Response: a, b, c, d
(a: 188 nM, b: 91.3 nM, c: 61.5 nM, d: 21.3 nM)

* * *

ASSAY SYSTEM: Histone-lysine N-methyltransferase EHMT2 (Homo sapiens, UniProt Q96KQ7)
ASSAY METHOD TEXT: Inhibition of N-terminal GST-tagged human recombinant G9a (785 to 1210 residues) expressed in baculovirus infected Sf9 cells incubated for 1 hr by AlphaLISA analysis
pIC50: −log10 of the molar value.
PROPERTY LABEL: pIC50

Example compounds with recorded pIC50:
{"columns": ["COMPOUND", "pIC50"],
 "data": [
  ["Cc1c(C(=O)NC(CCC2CC2)C(=O)Nc2ccc(C#N)cc2)[nH]c2c1C(=O)CC(C)(C)C2 (racemic)", 7.18],
  ["CCCCNC(=O)C(CCCC)NC(=O)c1[nH]c2c(c1C)C(=O)CC(C)(C)C2 (racemic)", 5.96],
  ["CCCCC(NC(=O)c1[nH]c2c(c1C)C(=O)CC(C)(C)C2)C(=O)Nc1ccccc1Cl (racemic)", 5.97],
  ["CSCC[C@H](NC(=O)c1[nH]c2c(c1C)C(=O)CC(C)(C)C2)c1nc2ccccc2[nH]1", 5.84],
  ["CCCCC(NC(=O)c1[nH]c2c(c1C)C(=O)CC(C)(C)C2)C(=O)Nc1ccc(C#N)cc1 (racemic)", 6.35]
]}

A: Cc1c(C(=O)N[C@@H](CCN(C)C)c2nc3ccccc3[nH]2)[nH]c2c1C(=O)CC(C)(C)C2
B: CCCCC(NC(=O)c1[nH]c2c(c1C)C(=O)CC(C)(C)C2)C(=O)Nc1ccc(OC)cc1 (racemic)
Query: pIC50 comparison. Which is larger, A or B ? Give the label of your selection.
Response: B
(B: 5.74, A: 4.77)

A: Cc1c(C(=O)NC(CCCCN)C(=O)Nc2ccccc2)[nH]c2c1C(=O)CC(C)(C)C2 (racemic)
B: CCCC[C@H](NC(=O)c1[nH]c2c(c1C(C)C)C(=O)CC(C)(C)C2)C(=O)Nc1ccccc1
Query: // pick larger pIC50 from pair: A vs B // caller expects the label of the chosen entry
Response: B

I: CCCCC(NC(=O)c1[nH]c2c(c1C)C(=O)CC(C)(C)C2)C(=O)Nc1ccccc1OC (racemic)
II: CCCC[C@H](NC(=O)c1[nH]c2c(c1CCC)C(=O)CC(C)(C)C2)C(=O)Nc1ccccc1
Query: # argmax over pIC50 for candidates I and II Respond using the label that marks the chosen record.
Response: II
(II: 6.51, I: 6.10)

* * *

ASSAY SYSTEM: Histone-lysine N-methyltransferase EHMT2 (Homo sapiens)
ASSAY METHOD TEXT: Inhibition of N-terminal GST-tagged human recombinant G9a (785 to 1210 residues) expressed in baculovirus infected Sf9 cells incubated for 1 hr by AlphaLISA analysis
PROPERTY LABEL: IC50 (nM)

{"columns": ["COMPOUND", "IC50 [nM]"],
 "data": [
  ["Cc1c(C(=O)N[C@H](CCC2CC2)C(=O)Nc2ccccc2)[nH]c2c1C(=O)CC(C)(C)C2", 2100]
]}

A: CSCCC(NC(=O)c1[nH]c2c(c1C)C(=O)CC(C)(C)C2)c1nc2ccccc2[nH]1 (racemic)
B: CC(C)c1c(C(=O)N[C@@H](CCC2CC2)C(=O)Nc2ccc(C#N)cc2)[nH]c2c1C(=O)CC(C)(C)C2
Query: Select one: A or B . Criterion: greater recorded IC50. Let me know the label of the one you choose.
Response: A
(A: 5320 nM, B: 55 nM)

* * *

ASSAY METHOD TEXT: Microsomal stability in human liver microsomes assessed as parent compound remaining after 30 mins in presence of NADPH by LC -MS/MS analysis
Type: ADME, Microsome
MEASUREMENT CONTEXT: read-out: Stability
PROPERTY LABEL: remaining at 0.5 h (%)

{"columns": ["MOLECULE", "remaining at 0.5 h (%)"],
 "data": [
  ["Cc1ccc(NC(=O)[C@@H](CCC2CC2)NC(=O)c2[nH]c3c(c2C)C(=O)CC(C)(C)C3)cn1", 40.2],
  ["CCCCC(NC(=O)c1[nH]c2c(c1C)C(=O)CC(C)(C)C2)C(=O)Nc1ccccc1OC (racemic)", 11.8]
]}

I: CCCCC(NC(=O)c1[nH]c2c(c1C)C(=O)CC(C)(C)C2)C(=O)Nc1ccncc1 (racemic)
II: CCCCC(NC(=O)c1[nH]c2c(c1C)C(=O)CC(C)(C)C2)C(=O)Nc1cccc(C#N)c1 (racemic)
Query: Could you tell me which of these two has the smaller remaining at 0.5 h figure? First: I Second: II Identify your selection by its label.
Response: I

* * *

ASSAY SYSTEM: Histone-lysine N-methyltransferase EHMT2 (Homo sapiens, UniProt Q96KQ7)
Sequence (Q96KQ7 whole entry): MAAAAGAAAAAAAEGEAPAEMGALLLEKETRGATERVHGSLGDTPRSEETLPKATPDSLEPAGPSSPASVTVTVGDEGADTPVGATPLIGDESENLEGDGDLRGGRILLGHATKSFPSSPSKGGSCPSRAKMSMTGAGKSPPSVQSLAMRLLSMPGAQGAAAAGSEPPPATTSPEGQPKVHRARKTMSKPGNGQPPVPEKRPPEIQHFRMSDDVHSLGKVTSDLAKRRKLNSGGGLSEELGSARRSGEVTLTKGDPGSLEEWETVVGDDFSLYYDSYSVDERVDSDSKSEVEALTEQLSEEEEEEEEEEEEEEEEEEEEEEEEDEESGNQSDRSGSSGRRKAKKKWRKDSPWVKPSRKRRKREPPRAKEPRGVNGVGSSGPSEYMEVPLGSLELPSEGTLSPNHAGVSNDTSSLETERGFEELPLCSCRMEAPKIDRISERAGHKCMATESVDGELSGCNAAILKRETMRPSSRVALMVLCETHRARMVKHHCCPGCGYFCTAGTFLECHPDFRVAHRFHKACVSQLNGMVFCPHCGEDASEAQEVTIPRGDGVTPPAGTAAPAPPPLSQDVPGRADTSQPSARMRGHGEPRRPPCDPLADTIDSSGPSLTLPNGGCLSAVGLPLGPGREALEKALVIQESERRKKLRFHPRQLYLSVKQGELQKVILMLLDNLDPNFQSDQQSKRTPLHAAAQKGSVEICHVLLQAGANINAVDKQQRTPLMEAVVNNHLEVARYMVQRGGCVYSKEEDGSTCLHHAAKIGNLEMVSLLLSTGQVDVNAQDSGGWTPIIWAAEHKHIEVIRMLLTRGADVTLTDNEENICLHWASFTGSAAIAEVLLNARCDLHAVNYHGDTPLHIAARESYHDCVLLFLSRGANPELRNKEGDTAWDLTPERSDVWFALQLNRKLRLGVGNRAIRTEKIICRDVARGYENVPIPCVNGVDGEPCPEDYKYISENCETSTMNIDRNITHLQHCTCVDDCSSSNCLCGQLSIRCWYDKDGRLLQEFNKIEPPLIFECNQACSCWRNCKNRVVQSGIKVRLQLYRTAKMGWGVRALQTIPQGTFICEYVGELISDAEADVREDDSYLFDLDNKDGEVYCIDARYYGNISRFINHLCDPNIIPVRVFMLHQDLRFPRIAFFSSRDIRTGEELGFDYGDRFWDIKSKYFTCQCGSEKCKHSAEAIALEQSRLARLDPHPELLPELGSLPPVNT
ASSAY METHOD TEXT: Inhibition of N-terminal GST-tagged human recombinant G9a (785 to 1210 residues) expressed in baculovirus infected Sf9 cells incubated for 1 hr by AlphaLISA analysis
pIC50: −log10 of the molar value.
PROPERTY LABEL: pIC50

Look over these answered cases.
{"columns": ["MOLECULE", "PROPERTY LABEL", "MEAS VALUE"],
 "data": [
  ["Cc1ccc(NC(=O)[C@@H](CCC2CC2)NC(=O)c2[nH]c3c(c2C)C(=O)CC(C)(C)C3)cn1", "pIC50", 7.30],
  ["CCCCC(NC(=O)c1[nH]c2c(c1C)C(=O)CC(C)(C)C2)C(=O)Nc1ccc(S(C)(=O)=O)cc1 (racemic)", "pIC50", 5.53],
  ["Cc1c(C(=O)NC(CCCN)C(=O)Nc2ccccc2)[nH]c2c1C(=O)CC(C)(C)C2 (racemic)", "pIC50", 4.91]
]}

A: CCCC[C@@H](NC(=O)c1[nH]c2c(c1C)C(=O)CC(C)(C)C2)c1nc2ccccc2[nH]1
B: CCCCC(NC(=O)c1[nH]c2c(c1C)C(=O)CC(C)(C)C2)C(=O)Nc1ccc(C(=O)O)cc1 (racemic)
Query: Looking at A and B , which one comes out lower in pIC50 terms? Mark your selection by writing its label.
Response: A
